Hey, just so you know, these numbers are from PubChem BioAssay (NCATS).

assay-explanation: Quantitative High-Throughput drug screen in 47 multiple myeloma cell lines against the NCATS MIPE library collection: MMM1_PLB cell viability assay (AID 1918976); also: nearly all actives have a fitted effect of over 35% in size
condition-label: MMM1 myeloma cells viability, CellTiter-Glo, 48 h; series mostly up to 45.8 µM
Records with an inconclusive call do not appear. Calls of active or inactive are those of the source. Calls follow the shape of the dose curve; as a rule, active = well fitted cell-killing curve with a large enough effect; inconclusive = small, poorly fitted or top-dose-only effect, or effect the other way; inactive = no such curve, though single readings can be large or run the other way.
The reply should name one outcome from YES for active, NO for inactive

Req: So what was the verdict on CC(C)(OCc1nn(Cc2ccccc2)c2ccccc12)C(=O)O in this test?
Resp: NO

Req: // repeat for O=C1C(c2c(O)[nH]c3ccccc23)=Nc2ccccc21 and report
Resp: YES

Req: // repeat for CC1=C[C@@H]2[C@@H]([C@@H](O)C[C@@]3(C)[C@H]2C[C@@H](C)[C@]3(O)C(=O)CO)[C@@]2(C)Cc3cnn(-c4ccccc4)c3C=C12 and report
Resp: YES

Req: // repeat for CN(C)c1ccccc1CN1CCCN(Cc2ccccc2N(C)C)C1c1ccncc1 and report
Resp: YES

Req: // repeat for CN1C(=O)C[C@H](C(=O)N[C@@H](Cc2cnc[nH]2)C(=O)N2CCC[C@@H]2C(N)=O)NC1=O and report
Resp: YES

Req: // repeat for Cc1ccc(C2=Nc3ccc(Cl)cc3OC2)cc1 and report
Resp: YES

Req: // repeat for OC[C@H]1O[C@@H](O[C@H]2[C@@H](O)[C@@](O)(CO)O[C@@H]2CO)[C@H](O)[C@@H](O)[C@@H]1O and report
Resp: YES

---

Tested on: AS120
assay-explanation: qHTS profiling for inhibitors of Plasmodium falciparum proliferation (AID 504749);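 also: 0% = DMSO vehicle and full inhibition = artemisinin control; nearly all actives have a fitted effect of over 60% in size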
condition-label: P. falciparum in erythrocytes, SYBR Green DNA, 72 h; series mostly up to 28.7 µM
Records with an inconclusive call do not appear. Active and inactive are the calls of the source. Calls come from the whole dose curve; as a rule, active = well fitted inhibition curve with a large enough effect; inconclusive = small, poorly fitted or top-dose-only effect; inactive = flat fitted curve, though single readings scatter.
measured-endpoint: outcome

O=C1C(CCC(O)c2ccc(F)cc2)C(c2ccc(O)cc2)N1c1ccc(F)cc1 (stereo not drawn)    inactive
COc1cc2c(cc1OC)CC(=O)N(CCCN(C)C[C@H]1Cc3cc(OC)c(OC)cc31)CC2    inactive
CC(C)CN(C[C@@H](O)[C@H](Cc1ccccc1)NC(=O)O[C@H]1CO[C@H]2OCC[C@H]21)S(=O)(=O)c1ccc(N)cc1    inactive

---

assay-explanation: qHTS profiling of the MIPE4 collection as inhibitors of Plasmodium falciparum (DD2) proliferation (Rep 2) (AID 743346)
condition-label: P. falciparum Dd2 in erythrocytes, SYBR Green DNA, 72 h; at 28.5 µM (top of the series) unless noted
Lab note: cut-off is 20%. Strictly less in parasite growth, % of control (lower = inhibition) is fulfilled. Exactly 20% or more is not fulfilled.

Req: Please indicate whether the reported parasite growth, % of control (lower = inhibition) of C#CCN(C)CC1=Cc2ccccc2Oc2ccccc21 is strictly below 20%.
Resp: not fulfilled

Req: // repeat for CN(C)CCCNC(=O)c1ccc(-c2cc(O)c3ncccc3c2)cc1 and report
Resp: not fulfilled

Req: // repeat for CSc1cccc(Nc2ncc3cc(-c4c(Cl)cccc4Cl)c(=O)n(C)c3n2)c1 and report
Resp: fulfilled

Req: // repeat for CN(C)S(=O)(=O)c1ccc2c(c1)C(=Cc1cc3c([nH]1)CCCC3)C(=O)N2 and report
Resp: not fulfilled

Req: // repeat for Cc1ccc(C(=O)N(CCCN)[C@@H](c2nc3cc(Cl)ccc3c(=O)n2Cc2ccccc2)C(C)C)cc1 and report
Resp: fulfilled

Req: // repeat for CN[C@@H]1[C@@H](O)[C@@H](O[C@@H]2[C@@H](O)[C@H](O[C@H]3O[C@H](CN)[C@@H](O)[C@H](O)[C@@H]3O)[C@@H](N)C[C@@H]2NC(=O)[C@@H](O)CN)OC[C@]1(C)O and report
Resp: not fulfilled

Req: // repeat for CC(C)CNc1ccnc(NCc2csc(-c3ccccc3)n2)n1 and report
Resp: not fulfilled

Req: // repeat for NC(N)=Nc1nc(CSCCC(N)=NS(N)(=O)=O)cs1 and report
Resp: not fulfilled

Req: // repeat for O=C(Nc1cccc(C(F)(F)F)c1)Nc1cc(S(=O)(=O)NC2CC2)ccc1-c1ccsc1 and report
Resp: not fulfilled

Req: // repeat for Cc1ccc(NC(=O)Nc2cc(C(F)(F)F)ccc2F)cc1Nc1ccc2c(c1)NC(=O)C2=Cc1ccc[nH]1 and report
Resp: not fulfilled

Req: // repeat for CC[C@H](CC#N)OC(=O)N[C@@H](C)c1cccc(NC(=O)Nc2ccc(-c3cnco3)c(OC)c2)c1 and report
Resp: fulfilled

Req: // repeat for CO[C@H]1/C=C\O[C@@]2(C)Oc3c(C)c(O)c4c(O)c(c5c(nc6cc(C)ccn65)c4c3C2=O)NC(=O)C(C)=CC=C[C@H](C)[C@H](O)[C@@H](C)[C@@H](O)[C@@H](C)[C@H](OC(C)=O)[C@H]1C and report
Resp: fulfilled

---

System: Zika virus NS2B-NS3 protease (unlinked complex)
assay-explanation: Confirmatory screen GU AMC qHTS for Zika virus inhibitors (AID 1347153);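 also: enzyme at 25 nM with substrate at 10 µM below its Km of 18.3 µM; potency is read from the fitted curve at half-maximal effect; nearly all actives have a fitted effect of over 70% in size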
condition-label: Recombinant NS2B-NS3 protease, AMC substrate fluorescence; series mostly up to 57.1 µM
Records with an inconclusive call do not appear. Calls of active or inactive are those of the source. Calls come from the whole dose curve; as a rule, active = well fitted inhibition curve with a large enough effect; inconclusive = small, poorly fitted or top-dose-only effect; inactive = flat fitted curve, though single readings scatter.
measured-endpoint: Potency

Req: // returns reported Potency for input CC[C@H](C)n1cc(C)c2c(C(=O)NCc3c(C)cc(C)[nH]c3=O)cc(-c3ccc(N4CCNCC4)nc3)cc21
Resp: 27.1 µM (active)

Req: // repeat for CC(C)c1onc(-c2c(Cl)cccc2Cl)c1COc1ccc(C=Cc2cccc(C(=O)O)c2)c(Cl)c1 and report
Resp: 24.1 µM (active)

---

Test system: MKL-1
assay-explanation: qHTS assay to identify novel small-molecules to repurpose for Merkel cell carcinoma treatment (AID 1296009); also: % is scaled to controls: 0 for no effect and ±100 for the full control effect; nearly all actives have a fitted effect of over 60% in size
condition-label: MCC and control cell lines, CellTiter-Glo viability, 72 h; series mostly up to 46 µM
Results filed as inconclusive are left out. Activity calls are given as the source filed them. Calls follow the shape of the dose curve; as a rule, active = well fitted inhibition curve with a large enough effect; inconclusive = small, poorly fitted or top-dose-only effect; inactive = flat fitted curve, though single readings scatter.
measured-endpoint: outcome

C[C@@H](N)c1ccc(C(=O)Nc2ccnc3[nH]ccc23)cc1    inactive
N#CC1(c2cccc(C(=O)Nc3cc(Oc4ccc5nc(NC(=O)C6CC6)sc5n4)ccc3F)c2Cl)CC1    inactive
OCCn1cc(-c2ccc3c(c2)CCC3=NO)c(-c2ccncc2)n1    inactive

---

assay-explanation: High-throughput drug toxicity screening in the BPDCN cell line Gen2.2 (AID 1224824);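 also: cells exposed to compounds for 48 h before reading; 100% = DMSO and 0% = bortezomib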
condition-label: Gen2.2 BPDCN cells; at 45.8 µM (top of the series) unless noted
Record form. Attribute: cell viability, % of control (lower = more cytotoxic). Fill in for each entry.
Reply numerically in %, unit not repeated.

Req: // returns reported cell viability, % of control (lower = more cytotoxic) for input O=C(O)C1=CO[C@@H](O[C@@H]2O[C@H](CO)[C@H](O)[C@H](O)[C@H]2O)[C@@H]2C(CO)=CC[C@H]12
Resp: 78.1

Req: // repeat for CC1C(=O)OC2C(O)C34C5CC(C(C)(C)C)C36C(OC(=O)C6O)OC4(C(=O)O5)C12O (stereo not drawn) and report
Resp: 158

Req: // repeat for COc1cc([C@H]2Oc3cc([C@H]4Oc5cc(O)cc(O)c5C(=O)[C@H]4O)ccc3O[C@H]2CO)ccc1O and report
Resp: 181

Req: // repeat for O=C(Nc1ccc(OC(F)(F)F)cc1)c1sccc1NCc1ccnc2ccccc12 and report
Resp: 42.4

Req: // repeat for CSc1cccc(Nc2ncc3cc(-c4c(Cl)cccc4Cl)c(=O)n(C)c3n2)c1 and report
Resp: 288

Req: // repeat for CC[C@H](NC(=O)[C@H](C)NC)C(=O)N1C[C@@H](O)C[C@H]1Cc1c(-c2[nH]c3cc(F)ccc3c2C[C@H]2C[C@H](O)CN2C(=O)[C@H](CC)NC(=O)[C@H](C)NC)[nH]c2cc(F)ccc12 and report
Resp: 19.2

Req: // repeat for O=c1cc(-c2ccc(O)c(O)c2)oc2cc(O)cc(O)c12 and report
Resp: 264

Req: // repeat for C[C@H]1O[C@@H](n2cc(F)c(=O)[nH]c2=O)[C@H](O)[C@H]1O and report
Resp: 170

Req: // repeat for NCc1c[nH]c(=S)n1[C@H]1CCc2c(F)cc(F)cc2C1 and report
Resp: 61.4

Req: // repeat for COc1nccc(-c2c(-c3ccc(F)cc3)ncn2C2CCNCC2)n1 and report
Resp: 136

Req: // repeat for CN[C@@H](C)[C@H]1[C@H](O)C[C@@]2(C)[C@@H]3CC[C@H]4C(C)(C)[C@@H](NC)CC[C@@]45C[C@@]35CC[C@]12C and report
Resp: 71.1

Req: // repeat for C=C1c2cccc(O)c2C(O)=C2C(=O)[C@@]3(O)C(O)=C(C(N)=O)C(=O)[C@@H](N(C)C)[C@@H]3[C@@H](O)[C@H]12 and report
Resp: 88.8

Req: // repeat for Fc1ccc(CNc2ncnc3ccc(F)cc23)cc1 and report
Resp: 91.2

Req: // repeat for CC1(C)[C@H]2CC[C@]3(C)[C@@H](C(=O)C=C4[C@@H]5C[C@@](C)(C(=O)O)CC[C@]5(C)CC[C@]43C)[C@@]2(C)CC[C@@H]1O and report
Resp: 139

Req: // repeat for CC(=O)NCCC(=O)N[C@@H](CCC(N)=O)C(=O)N[C@@H](CO)C(=O)N[C@@H](CCC(N)=O)C(=O)N[C@@H](CCC(N)=O)C(=O)N[C@H](C(=O)N[C@@H](Cc1ccccc1)C(=O)N[C@]1(C)CCCCCCC=CCCC[C@@](C)(C(=O)N[C@@H](CCC(N)=O)C(=O)N[C@@H](CC(N)=O)C(N)=O)NC(=O)[C@H](CC(C)C)NC(=O)[C@H](CC(C)C)NC(=O)[C@@H](CCCNC(=N)N)NC(=O)[C@H](Cc2c[nH]c3ccccc23)NC(=O)[C@H](CC(C)C)NC(=O)[C@H](CC(N)=O)NC1=O)[C@H](C)O and report
Resp: 27

Req: // repeat for COc1c(C)c2c(c(O)c1CC=C(C)CCC(=O)OCCN1CCOCC1)C(=O)OC2 and report
Resp: 164

Req: // repeat for O=C(O)CCNc1cc(N2CCc3ccccc3CC2)nc(-c2ccccn2)n1 and report
Resp: 158

Req: // repeat for CNC1[C@H](O)C(O[C@@H]2C(O)C(O[C@H]3O[C@H]([C@@H](C)NC)CC[C@H]3N)[C@@H](N)C[C@H]2N)OC[C@]1(C)O (stereo partly drawn) and report
Resp: 116
